Target: Orexin/Hypocretin receptor type 1 (Homo sapiens, UniProt O43613)
Sequence (O43613 whole entry): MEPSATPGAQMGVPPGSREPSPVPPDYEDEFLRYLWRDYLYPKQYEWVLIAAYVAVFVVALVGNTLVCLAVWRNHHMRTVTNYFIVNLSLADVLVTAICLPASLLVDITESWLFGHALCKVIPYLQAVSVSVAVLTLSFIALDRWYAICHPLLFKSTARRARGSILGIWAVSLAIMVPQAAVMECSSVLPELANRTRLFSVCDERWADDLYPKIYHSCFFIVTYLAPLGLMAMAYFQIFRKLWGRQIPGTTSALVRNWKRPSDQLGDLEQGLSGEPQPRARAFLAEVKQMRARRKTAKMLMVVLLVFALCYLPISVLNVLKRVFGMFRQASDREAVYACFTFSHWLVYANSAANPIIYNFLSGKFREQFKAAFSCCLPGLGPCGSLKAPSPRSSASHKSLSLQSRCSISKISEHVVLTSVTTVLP
# reported pKi; entries follow
To interpret pKi, take it as minus log10 of a concentration measured in moles per litre.

# example entries with known answers
Cc1nc(-c2ccccc2C(=O)N2C[C@H](Oc3cc(C#N)ccn3)CC[C@H]2C)no1 | 5.78
C[C@@H]1CC[C@@H](Oc2cc(C#N)ccn2)CN1C(=O)c1ccccc1-c1ncccn1 | 6.12

Now for the compound whose pKi we want.
Task: Item: C[C@@H]1CC[C@@H](Oc2cc(C#N)ccn2)CN1C(=O)c1ccccc1-n1nccn1 Test system: Orexin/Hypocretin receptor type 1 (Homo sapiens, UniProt O43613) Read-out: pKi Value: ?
Result: 6.09
